- assay.comment: Urinary recovery of injected dose (metabolic cages)
- Format: in vivo, Sprague Dawley rats
- run.parameters: Sprague Dawley, rat, urine, iv, 2.5 mg/kg, individual rats, cumulative, time 1 h after i.v. injection
measured.parameter: dose excreted at 1 h (%)

1) CC1(C)C(/C=C/C2=C(Nc3ccc(CCC(=O)O)cc3)C(=C/C=C3/N(CCC[N+](C)(C)C)c4ccc(S(=O)(=O)O)cc4C3(C)C)/CCC2)=[N+](CCC[N+](C)(C)C)c2ccc(S(=O)(=O)O)cc21 46.7

====

- assay.comment: Transcutaneous measurement of elimination kinetics in healthy rats
- Type: in vivo, Sprague Dawley rats
- run.parameters: Sprague Dawley, rat, skin (transcutaneous fluorescence signal), iv, 2.5 mg/kg; healthy rats 8-10 weeks, i.v. bolus, transcutaneous measurement; read-out: T 1/2 without probenecid (clearance half-life)

molecule	half-life / min
CC1(C)C(/C=C/C2=C(Nc3ccc(CCC(=O)O)cc3)C(=C/C=C3/N(CCC[N+](C)(C)C)c4ccc(S(=O)(=O)O)cc4C3(C)C)/CCC2)=[N+](CCC[N+](C)(C)C)c2ccc(S(=O)(=O)O)cc21 [ABZWCY]	52.6
